Molecular target: T1, FLAG-Tagged hAng2 (human, UniProt O15123 19-496, limits assumed)
T1 construct: also called FLAG-Ang2; non-mutated Ang2
T1 sequence: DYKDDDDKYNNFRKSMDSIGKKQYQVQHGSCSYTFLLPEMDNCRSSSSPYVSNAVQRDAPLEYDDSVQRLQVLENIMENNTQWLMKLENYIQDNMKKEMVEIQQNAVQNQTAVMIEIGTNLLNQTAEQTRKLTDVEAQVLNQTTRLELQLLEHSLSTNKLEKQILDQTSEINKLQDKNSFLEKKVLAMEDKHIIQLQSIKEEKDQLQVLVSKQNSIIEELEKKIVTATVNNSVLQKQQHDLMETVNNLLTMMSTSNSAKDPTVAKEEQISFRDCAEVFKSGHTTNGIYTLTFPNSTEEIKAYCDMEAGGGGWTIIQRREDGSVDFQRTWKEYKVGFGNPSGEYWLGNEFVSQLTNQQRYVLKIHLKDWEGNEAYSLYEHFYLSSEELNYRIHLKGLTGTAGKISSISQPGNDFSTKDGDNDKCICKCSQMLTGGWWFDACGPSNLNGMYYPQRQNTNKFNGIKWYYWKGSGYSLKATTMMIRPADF
Assay: competitive ELISA: hTie2-Fc coated, 400 ng/ml FLAG-hAng2 plus IgG, anti-FLAG-HRP
Measurement name: IC50 (nM)
Give the quantity in nM, number only.

Worked examples follow.
Binder	Assay result
SAIT-ANG-2-AB-4-F5 (IgG form) (antibody, V domains shown, Intact human antibody with human IgG1 constant region) VH: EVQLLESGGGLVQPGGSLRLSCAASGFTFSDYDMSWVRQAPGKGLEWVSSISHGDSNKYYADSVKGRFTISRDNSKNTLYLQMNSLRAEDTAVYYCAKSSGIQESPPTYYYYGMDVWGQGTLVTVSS VL: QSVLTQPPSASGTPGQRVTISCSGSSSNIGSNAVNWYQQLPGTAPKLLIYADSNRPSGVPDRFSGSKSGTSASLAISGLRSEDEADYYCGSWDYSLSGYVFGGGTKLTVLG	1.52
SAIT-ANG-2-AB-4-C11 (IgG form) (antibody, V domains shown, Intact human antibody with human IgG1 constant region) VH: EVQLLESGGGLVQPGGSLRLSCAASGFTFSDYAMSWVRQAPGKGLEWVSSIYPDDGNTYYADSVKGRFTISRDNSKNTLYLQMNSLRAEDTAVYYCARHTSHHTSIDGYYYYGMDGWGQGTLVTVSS VL: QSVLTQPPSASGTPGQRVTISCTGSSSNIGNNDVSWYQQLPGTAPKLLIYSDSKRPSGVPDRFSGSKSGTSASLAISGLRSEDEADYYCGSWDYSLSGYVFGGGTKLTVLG	0.421
SAIT-ANG-2-AB-7-C9 (IgG form) (antibody, V domains shown, Intact human antibody with human IgG1 constant region) VH: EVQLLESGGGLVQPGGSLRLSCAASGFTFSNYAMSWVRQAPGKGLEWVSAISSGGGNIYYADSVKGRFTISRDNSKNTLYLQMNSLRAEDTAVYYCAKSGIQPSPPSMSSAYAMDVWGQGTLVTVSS VL: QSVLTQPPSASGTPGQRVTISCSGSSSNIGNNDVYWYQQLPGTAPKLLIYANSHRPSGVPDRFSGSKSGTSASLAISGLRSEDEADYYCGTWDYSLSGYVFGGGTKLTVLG	0.392

Query SAIT-ANG-2-AB-4-F11 (IgG form) (antibody, V domains shown, Intact human antibody with human IgG1 constant region) VH: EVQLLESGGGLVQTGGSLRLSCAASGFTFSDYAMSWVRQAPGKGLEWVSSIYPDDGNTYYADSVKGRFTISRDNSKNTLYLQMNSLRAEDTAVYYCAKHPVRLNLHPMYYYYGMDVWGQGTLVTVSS VL: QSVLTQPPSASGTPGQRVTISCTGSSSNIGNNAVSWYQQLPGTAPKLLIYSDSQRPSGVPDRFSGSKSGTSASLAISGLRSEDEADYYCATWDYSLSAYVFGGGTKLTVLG yields IC50 of 0.37
